test.name: Thermodynamic equilibrium solubility of the compound in pH 7.4 phosphate buffered saline after 24 hrs by shake flask method
Format: physicochemical
conditions.used: read-out: Therm_solubility
Label 1 when solubility thermodynamic at 24 h is at or above 0.2 µg/mL; otherwise label 0.

A selection of reference data follows.
{"structure": "O=C(NCc1ccccc1)c1cn(CCCF)c2cc(N3CCOCC3)c(F)cc2c1=O", "group": 1}
{"structure": "CCCCn1cc(C(=O)NCc2ccccc2)c(=O)c2c(F)cc(N3CCOCC3)cc21", "group": 0}
{"structure": "CCCCn1cc(C(=O)NCc2ccccc2)c(=O)c2ccc(N3CCOCC3)c(F)c21", "group": 1}
{"structure": "O=C(NCc1ccccc1)c1cn(CCCO)c2cc(N3CCOCC3)c(F)cc2c1=O", "group": 1}
{"structure": "CCCCn1cc(C(=O)NCc2ccccc2)c(=O)c2cc(F)c(N3CCOCC3)cc21", "group": 0}
{"structure": "CCCCn1cc(C(=O)NCc2ccccc2)c(=O)c2cc(OC)c(N3CCOCC3)cc21", "group": 1}

As a next step, examine the compound that follows.
Does solubility thermodynamic at 24 h meet or surpass 0.2 µg/mL for CCCCn1cc(C(=O)NCc2ccccc2)c(=O)c2ccc(N3CCOCC3)cc21 ?
1

###

test.name: Selectivity index, ratio of CC50 for mouse J774.1 cells to IC50 for trypomastigote forms of Trypanosoma brucei brucei TC 221 assessed as parasite growth inhibition after 48 hrs
Format: toxicity
conditions.used: read-out: Ratio CC50/IC50
endpoint: selectivity ratio at 48 h
Format: numeric value only, no unit, no commentary.

{"structure": "CCCCn1cc(C(=O)NCc2ccccc2)c(=O)c2c(OC)cc(N3CCOCC3)cc21", "endpoint": "selectivity ratio at 48 h", "numeric.value": 68}
{"structure": "O=C(NCc1ccccc1)c1cn(CCCF)c2cc(N3CCOCC3)c(F)cc2c1=O", "endpoint": "selectivity ratio at 48 h", "numeric.value": 353}
{"structure": "CCCCn1cc(C(=O)NCc2ccccc2)c(=O)c2c(N(C)C)cc(N3CCOCC3)cc21", "endpoint": "selectivity ratio at 48 h", "numeric.value": 24}

Now examine the next entry.
What does the record list as selectivity ratio at 48 h for CCCCn1cc(C(=O)NCc2ccc(F)cc2F)c(=O)c2cc(F)c(N3CCOCC3)cc21 ?
1990

###

test.name: Selectivity index, ratio of CC50 for mouse J774.1 cells to IC50 for trypomastigote forms of Trypanosoma brucei brucei TC 221 assessed as parasite growth inhibition after 48 hrs
Assay type: toxicity
conditions.used: read-out: Ratio CC50/IC50
endpoint: selectivity ratio at 48 h

What does the record list as selectivity ratio at 48 h for CCCCn1cc(C(=O)NCc2ccc(F)cc2)c(=O)c2c(F)cc(N3CCOCC3)cc21 ?
> 1250

Subsequent entry: CCCCn1cc(C(=O)NCc2ccc(F)cc2)c(=O)c2cc(F)c(N3CCOCC3)cc21
> 400

###

test.name: Selectivity index, ratio of CC50 for mouse J774.1 cells to IC50 for trypomastigote forms of Trypanosoma brucei brucei TC 221 assessed as parasite growth inhibition after 48 hrs
Type: toxicity
conditions.used: read-out: Ratio CC50/IC50
endpoint: selectivity ratio at 48 h

What does the record list as selectivity ratio at 48 h for CCCCn1cc(C(=O)NCc2ccccc2)c(=O)c2c(F)cc(N3CCOCC3)cc21 ?
> 2000

Subsequent entry: CCCCn1cc(C(=O)NCc2ccccc2)c(=O)c2ccc(N3CCOCC3)c(F)c21
> 32

Subsequent entry: CCCCn1cc(C(=O)NCc2ccccc2)c(=O)c2cc(F)c(N3CCOCC3)c(F)c21
> 333
